# Method Notes: Waters ACQUITY UPLC BEH C18, 100 × 2.1 mm, 1.7 µm, 40 °C, 0.3 to 0.4 mL/min, estimated dead time 0.63 min; A: water + 0.1% formic acid; B: methanol + 0.1% formic acid; gradient (min/%B) 0/0.5 0.1/0.5 10/80 10.1/99.5 12/99.5
# Run Parameters: stereoisomer not certain
Readout Type: LC retention time (min)

Worked set:
{"columns": ["Compound", "LC retention time [min]"],
 "data": [
  ["COc1cc(C=CC(=O)OC(CC(=O)O)C(=O)O)cc(OC)c1O (configuration not stated)", 4.23],
  ["CC1CCC2(OC1)OC1C(O)C3C4CCC5CC(OC6OC(CO)C(OC7OC(CO)C(O)C(OC8OCC(O)C(O)C8O)C7OC7OC(CO)C(O)C(OC8OC(CO)C(O)C(O)C8O)C7O)C(O)C6O)C(O)CC5(C)C4CCC3(C)C1C2C (configuration not stated)", 6.99],
  ["C=CCNC(=O)C=Cc1ccc(O)c(OC)c1", 2.86],
  ["CC1OC(OCC2OC(Oc3c(-c4ccccc4O)oc4cc(O)cc(O)c4c3=O)C(O)C(O)C2O)C(O)C(O)C1O (configuration not stated)", 4.1],
  ["COc1cc(C=CC(=O)NC=Cc2ccc(O)cc2)ccc1O", 4.3]
]}

[P] O=c1c(OC2OC(CO)C(O)C(O)C2O)c(-c2cc(O)c(O)c(O)c2)oc2cc(O)cc(O)c12 (configuration not stated)
[Q] CC(C)=CCCC(C)(OC1OC(COC2OCC(O)C(O)C2O)C(O)C(O)C1O)C1CCC2(C)C1C(O)CC1C3(C)CCC(O)C(C)(C)C3C(O)CC12C (configuration not stated)
Lowest LC retention time? choose P or Q Output the label that corresponds to your choice. P

---

# Method Notes: Waters ACQUITY UPLC BEH C18, 100 × 2.1 mm, 1.7 µm, 40 °C, 0.3 to 0.4 mL/min, estimated dead time 0.63 min; A: water + 0.1% formic acid; B: methanol + 0.1% formic acid; gradient (min/%B) 0/0.5 0.1/0.5 10/80 10.1/99.5 12/99.5
# Run Parameters: stereoisomer not certain
Readout Type: LC retention time (min)

Worked set:
{"columns": ["Molecule", "Readout Type", "Measurement Units", "Measured"],
 "data": [
  ["O=C1CC(c2ccccc2)Oc2ccc(O)cc21 (stereo unspecified)", "LC retention time", "min", 7.17],
  ["CC1OC(Oc2cc(O)c3c(=O)c(O)c(-c4ccc(O)cc4)oc3c2)C(O)C(O)C1O (stereo unspecified)", "LC retention time", "min", 5.28],
  ["COc1cc(-c2cc(=O)c3c(O)cc(OC4OC(COC(=O)CC(=O)O)C(O)C(O)C4O)cc3o2)ccc1O (stereo unspecified)", "LC retention time", "min", 4.8],
  ["CCC1=NC2CC3(C(=O)N(OC)c4ccccc43)C3CC1C2CO3 (stereo unspecified)", "LC retention time", "min", 3.99],
  ["Oc1cc(O)c2c(c1)OC(c1ccc(O)c(O)c1)C(O)C2c1c(O)cc(O)c2c1OC(c1ccc(O)c(O)c1)C(O)C2c1c(O)cc(O)c2c1OC(c1ccc(O)c(O)c1)C(O)C2 (stereo unspecified)", "LC retention time", "min", 3.46],
  ["COc1ccc(-c2oc3cc(O)cc(O)c3c(=O)c2O)cc1", "LC retention time", "min", 5.99]
]}

[1] O=c1c(OC2OCC(O)C(O)C2O)c(-c2ccc(O)c(O)c2)oc2cc(O)cc(O)c12 (stereo unspecified)
[2] CC1(C(=O)O)CCC2(C)CCC3(C)C(=CCC4C5(C)CCC(OC6OC(C(=O)O)C(O)C(O)C6OC6OC(C(=O)O)C(O)C(O)C6O)C(C)(CO)C5CCC43C)C2C1 (stereo unspecified)
[3] CCC(C)C(N)C(=O)NC(CC(=O)O)C(=O)O (stereo unspecified)
// smallest LC retention time at index 0, largest at the end Answer format: the labels, in the requested order. 3, 1, 2
(3: 1.87 min, 1: 4.17 min, 2: 6.15 min)

[a] COc1cc(C=CC(=O)NCCCCN=C(N)N)cc(OC)c1O
[b] O=C1NCC(=O)N2CCCC12 (stereo unspecified)
[c] C=CC1c2cc3n(c(=O)c2C2OC1OC1OC(CO)C(O)C(O)C1O2)CCc1c-3[nH]c2ccccc12 (stereo unspecified)
// smallest LC retention time at index 0, largest at the end Answer format: the labels, in the requested order. b, a, c
(b: 2.06 min, a: 3.27 min, c: 5.46 min)

[A] CC=CS(=O)CC(NC(=O)CCC(NCC1(O)OCC(O)C(O)C1O)C(=O)O)C(=O)O (stereo unspecified)
[B] O=c1cc(-c2ccc(O)c(O)c2)oc2c(C3OC(CO)C(O)C(O)C3O)c(O)cc(O)c12 (stereo unspecified)
Lowest LC retention time? choose A or B Output the label that corresponds to your choice. A
(A: 1.83 min, B: 3.7 min)

---

# Method Notes: Waters ACQUITY UPLC BEH C18, 100 × 2.1 mm, 1.7 µm, 40 °C, 0.3 to 0.4 mL/min, estimated dead time 0.63 min; A: water + 0.1% formic acid; B: methanol + 0.1% formic acid; gradient (min/%B) 0/0.5 0.1/0.5 10/80 10.1/99.5 12/99.5
# Run Parameters: stereoisomer not certain
Readout Type: LC retention time (min)

{"columns": ["Molecule", "Measured"],
 "data": [
  ["O=C(C=Cc1ccc(O)cc1)OC1C(Oc2c(-c3ccc(O)cc3)oc3cc(O)cc(O)c3c2=O)OC(CO)C(O)C1O (centres undefined)", 5.32],
  ["C[n+]1cc2c3c(ccc2c2ccc4cc5c(cc4c21)OCO5)OCO3", 4.85]
]}

[1] O=C(O)CC(=O)NC(Cc1c[nH]c2ccccc12)C(=O)O (centres undefined)
[2] CC1OC(OC2C(OC3C(OC4CCC5(C)C(CCC6(C)C5CC=C5C7CC(C)(C)CC(=O)C7(C)CCC56C)C4(C)CO)OC(C(=O)O)C(O)C3O)OC(CO)C(O)C2O)C(O)C(O)C1O (centres undefined)
Parameter check: reported LC retention time is higher for which label, 1 or 2 ? Output the label that corresponds to your choice. 2

---

# Method Notes: Waters ACQUITY UPLC BEH C18, 100 × 2.1 mm, 1.7 µm, 40 °C, 0.3 to 0.4 mL/min, estimated dead time 0.63 min; A: water + 0.1% formic acid; B: methanol + 0.1% formic acid; gradient (min/%B) 0/0.5 0.1/0.5 10/80 10.1/99.5 12/99.5
# Run Parameters: stereoisomer not certain
Readout Type: LC retention time (min)

{"columns": ["Compound", "Measured"],
 "data": [
  ["COc1cc(C=CC(=O)N2CCC=CC2=O)cc(OC)c1OC", 6.83]
]}

[P] C=CC1C(OC2OC(CO)C(O)C(O)C2O)OC=C2C(=O)N3CCc4c([nH]c5ccccc45)C3CC21 (stereo unspecified)
[Q] CCC(C)C(N)C(=O)NC(CCC(N)=O)C(=O)O (stereo unspecified)
Parameter check: reported LC retention time is higher for which label, P or Q ? Output the label that corresponds to your choice. P
(P: 5.56 min, Q: 1.82 min)

[1] CC1CCC2C(C)C3C(CC4C5CC=C6CC(O)CCC6(C)C5CCC43C)N2C1 (stereo unspecified)
[2] CC(C)CC(N)C(=O)O (stereo unspecified)
Parameter check: reported LC retention time is higher for which label, 1 or 2 ? Output the label that corresponds to your choice. 1
(1: 5.99 min, 2: 1.87 min)

[P] CN1c2ccccc2C(=O)N2CCc3c([nH]c4ccccc34)C21 (stereo unspecified)
[Q] CCCCCCCC(O)SCC(NC(=O)CCC(N)C(=O)O)C(=O)NCC(=O)O (stereo unspecified)
Lowest LC retention time? choose P or Q Output the label that corresponds to your choice. Q
(Q: 4.58 min, P: 7.77 min)

[1] COc1ccc2c(c1)OC1c3ccc(O)cc3OCC21 (stereo unspecified)
[2] O=c1c(OC2OC(CO)C(O)C(O)C2O)c(-c2ccc(O)c(O)c2)oc2cc(O)cc(O)c12 (stereo unspecified)
Parameter check: reported LC retention time is higher for which label, 1 or 2 ? Output the label that corresponds to your choice. 1
(1: 5.92 min, 2: 4.03 min)

---

# Method Notes: Waters ACQUITY UPLC BEH C18, 100 × 2.1 mm, 1.7 µm, 40 °C, 0.3 to 0.4 mL/min, estimated dead time 0.63 min; A: water + 0.1% formic acid; B: methanol + 0.1% formic acid; gradient (min/%B) 0/0.5 0.1/0.5 10/80 10.1/99.5 12/99.5
# Run Parameters: stereoisomer not certain
Readout Type: LC retention time (min)

{"columns": ["Compound", "Measurement Units", "LC retention time"],
 "data": [
  ["COc1cc(C=CC(=O)OCC2OC(OC3C(c4c(O)cc5oc(-c6ccc(O)cc6)cc(=O)c5c4O)OC(CO)C(O)C3O)C(O)C(O)C2O)ccc1O (stereo not given)", "min", 4.21]
]}

[I] OCC1OC(Oc2cc3c(O)cc(O)cc3[o+]c2-c2ccc(O)c(O)c2)C(O)C(O)C1O (stereo not given)
[II] COC(=O)C1=COC(C)C2CN3CCc4c([nH]c5ccccc45)C3CC12 (stereo not given)
[III] CN1CCCC1c1cccnc1 (stereo not given)
Order field: LC retention time | Direction: descending (largest first) Answer format: the labels, in the requested order. II, I, III
(II: 4.87 min, I: 2.91 min, III: 1.62 min)

[I] COc1ccc2c3c([nH]c2c1)C1CC2C(CC(O)C(OC)C2C(=O)O)CN1CC3 (stereo not given)
[II] COc1cccc(C=CC(=O)O)c1
Parameter check: reported LC retention time is higher for which label, I or II ? Output the label that corresponds to your choice. II

[A] O=C(O)CCCCCCCC(=O)O
[B] CCOC1OC(=O)c2cc3ccc4c(c3c(-c3ccc5c(c3)OCO5)c21)OCO4 (stereo not given)
Parameter check: reported LC retention time is higher for which label, A or B ? Output the label that corresponds to your choice. B
(B: 8.82 min, A: 4.78 min)

[P] CC1OC(OC2C(Oc3cc(O)c4c(=O)cc(-c5ccc(O)cc5)oc4c3)OC(CO)C(O)C2O)C(O)C(O)C1O (stereo not given)
[Q] O=C(C=CC=Cc1ccc2c(c1)OCO2)N1CCCCC1
Parameter check: reported LC retention time is higher for which label, P or Q ? Output the label that corresponds to your choice. Q
(Q: 7.84 min, P: 4.34 min)
